- measured on: mushroom tyrosinase
- test summary: Mushroom tyrosinase inhibition microplate assay (L-tyrosine substrate)
- condition label: L-tyrosine as substrate; mean ± SE
Answer each item with its documented pIC50.
Give bare numbers, as −log10 of the molar value.

[
  {
    "molecule": "N[C@@H](Cn1ccc(=O)c(O)c1)C(=O)N[C@@H](Cc1c[nH]c2ccccc12)C(=O)O",
    "measured number": 4.72
  },
  {
    "molecule": "N[C@@H](Cn1ccc(=O)c(O)c1)C(=O)O",
    "measured number": 4.49
  }
]

Need pIC50 for each of these compounds.
1. N[C@@H](Cn1ccc(=O)c(O)c1)C(=O)N[C@H](Cc1ccccc1)C(=O)O
2. C[C@@H](NC(=O)[C@@H](N)Cn1ccc(=O)c(O)c1)C(=O)O
3. N[C@@H](Cn1ccc(=O)c(O)c1)C(=O)N[C@@H](Cc1ccccc1)C(=O)O
4. C[C@H](NC(=O)[C@@H](N)Cn1ccc(=O)c(O)c1)C(=O)O
5. N[C@@H](Cn1ccc(=O)c(O)c1)C(=O)N1CCC[C@@H]1C(=O)O

Outgoing:
1. 4.71
2. 4.75
3. 4.62
4. 4.64
5. 4.76
